# System name: Prostaglandin G/H synthase 2 (Homo sapiens, UniProt P35354)
# Sequence (P35354 whole entry): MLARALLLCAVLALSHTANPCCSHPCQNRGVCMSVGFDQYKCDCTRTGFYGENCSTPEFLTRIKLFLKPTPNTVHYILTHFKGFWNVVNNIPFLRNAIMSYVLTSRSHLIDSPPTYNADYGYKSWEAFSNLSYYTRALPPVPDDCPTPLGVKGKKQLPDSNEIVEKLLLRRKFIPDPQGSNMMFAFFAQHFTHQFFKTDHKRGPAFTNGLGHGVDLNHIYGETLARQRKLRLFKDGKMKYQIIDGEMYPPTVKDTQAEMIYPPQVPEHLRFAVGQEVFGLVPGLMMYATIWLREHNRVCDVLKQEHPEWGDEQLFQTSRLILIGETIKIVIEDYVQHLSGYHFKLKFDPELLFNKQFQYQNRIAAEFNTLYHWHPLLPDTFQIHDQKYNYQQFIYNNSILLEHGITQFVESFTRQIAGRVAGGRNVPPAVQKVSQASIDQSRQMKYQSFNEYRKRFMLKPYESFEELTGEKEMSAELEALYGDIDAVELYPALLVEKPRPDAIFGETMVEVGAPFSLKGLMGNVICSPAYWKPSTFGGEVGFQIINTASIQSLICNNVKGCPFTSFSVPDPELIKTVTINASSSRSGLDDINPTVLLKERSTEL
The entries below are paired with their reported IC50.

| Molecule | IC50 |
| --- | --- |
| C/C=C(\C)C(=O)O[C@@H]1[C@@H](C)[C@@]2(O)[C@@H](C=C(CO)C[C@]3(O)C(=O)C(C)=C[C@@H]23)[C@@H]2C(C)(C)[C@]12OC(=O)C(C)CC (some centres undefined) | > 50 µM |

Given the molecule CCC(C)C(=O)O[C@@]12[C@H](OC(C)=O)[C@@H](C)[C@@]3(O)[C@@H](C(=O)C(CO)=C[C@]4(O)C(=O)C(C)=C[C@@H]34)[C@@H]1C2(C)C (some centres undefined) , write its reported IC50.
> 50 µM

Given the molecule CCC(C)C(=O)O[C@@]12[C@H](OC(=O)c3ccccc3)[C@@H](C)[C@@]3(O)[C@@H](C=C(CO)C[C@]4(O)C(=O)C(C)=C[C@@H]34)[C@@H]1C2(C)C (some centres undefined) , write its reported IC50.
8.5 µM

Given the molecule C/C=C(\C)C(=O)O[C@@H]1[C@@H](C)[C@@]2(O)[C@@H](C(=O)C(CO)=C[C@]3(O)C(=O)C(C)=C[C@@H]23)[C@@H]2C(C)(C)[C@]12OC(=O)C(C)CC (some centres undefined) , write its reported IC50.
> 50 µM
